biological target: FXR ligand binding domain (Homo sapiens); test: Mammalian One Hybrid (M1H) assay, Gal4 promoter driven transactivation in HEK293 cells; settings: Gal4-FXR-LBD luciferase reporter, 16 h
Sequence (Q96RI1 187-472 isoform Q96RI1-2): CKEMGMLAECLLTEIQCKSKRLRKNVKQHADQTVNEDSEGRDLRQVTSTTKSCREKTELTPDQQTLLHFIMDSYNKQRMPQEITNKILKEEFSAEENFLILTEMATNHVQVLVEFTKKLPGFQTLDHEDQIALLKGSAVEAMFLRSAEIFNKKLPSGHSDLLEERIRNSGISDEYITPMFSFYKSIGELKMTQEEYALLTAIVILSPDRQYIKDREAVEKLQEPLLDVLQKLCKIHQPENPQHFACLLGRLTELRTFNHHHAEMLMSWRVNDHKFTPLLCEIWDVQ
Kindly state pEC50 for each of the entries shown.
Answers are plain numbers, as −log10 of the molar value.

O=C(O)c1cc(F)c2nc([C@]3(O)[C@@H]4CC[C@H]3C[C@H](OCc3c(-c5ccccc5OC(F)F)noc3C3CC3)C4)sc2c1 [Example 11-28] ... 7.77
O=C(NCCS(=O)(=O)O)c1cc(F)c2nc([C@]3(O)[C@@H]4CC[C@H]3C[C@H](OCc3c(-c5c(Cl)cccc5Cl)noc3C3CC3)C4)sc2c1 [Example 39] ... 6.12

Then there is this compound:
Query (compound): CC(C)(F)c1onc(-c2c(Cl)cccc2Cl)c1CO[C@@H]1C[C@H]2CC[C@@H](C1)[C@]2(O)c1nc2c(F)cc(C(=O)O)cc2s1 [Example 11-52] ; field requested: pEC50
8.72
